Test system: BDF1 mice, Adenocarcinoma 755 s.c., tumor weight T/C
Test: NCI In Vivo Anticancer Drug Screen. Data for tumor model Adenocarcinoma 755 (subcutaneous) in B6D2F1 (BDF1) mice
Details: endpoint: mean tumor weight; dose: 200.0 mg/kg/injection; schedule: Q01DX011 (ip); vehicle: carboxymethylcellulose (CMC); higher = larger tumour
measured-parameter: T/C

### Prompt Please give the documented T/C of `O=C(O)CCC(=O)NO`
### Response 84 % of control

### Prompt Please give the documented T/C of OCC1OC(n2cnc3c(=S)nc[nH]c32)C(O)C1O (configuration not stated)
### Response 6 % of control

### Prompt Please give the documented T/C of `CCSc1nc(Cl)cc(Sc2nc(N)nc3nc[nH]c23)n1`
### Response 3 % of control

### Prompt Please give the documented T/C of `CCOC=Nc1c(N)ncnc1Cl`
### Response 38 % of control

### Prompt Please give the documented T/C of `Nc1nc(Oc2ccc(Cl)cc2)c2n[nH]nc2n1`
### Response 66 % of control

### Prompt Please give the documented T/C of CC1CN1P(=S)(N1CCCCC1)N1CC1C (configuration not stated)
### Response 102 % of control

### Prompt Please give the documented T/C of `CN1c2ccc3ccccc3c2Sc2ccc3ccccc3c21`
### Response 48 % of control

### Prompt Please give the documented T/C of COc1ccc(C(=O)OCC2OC(n3cnc4c(=S)nc(N)[nH]c43)C(OC(=O)c3ccc(OC)cc3)C2OC(=O)c2ccc(OC)cc2)cc1 (configuration not stated)
### Response 7 % of control

### Prompt Please give the documented T/C of `O=C(O)c1ccc(-c2ccccc2)cc1`
### Response 80 % of control

### Prompt Please give the documented T/C of `Nc1[nH]cnc(=S)c1NC=O`
### Response 101 % of control

New cases:
### Prompt Please give the documented T/C of Cc1cc2c(cc1C)NC(C)CC(=O)N2 (configuration not stated)
### Response 84 % of control

### Prompt Please give the documented T/C of `C[C@H]1C(=O)O[C@@H]2CCN3CC=C(COC(=O)[C@](C)(O)[C@@]1(C)O)[C@H]23`
### Response 13 % of control

====

Tested on: BDF1 mice, Adenocarcinoma 755 s.c., tumor weight T/C
Experiment: NCI In Vivo Anticancer Drug Screen. Data for tumor model Adenocarcinoma 755 (subcutaneous) in B6D2F1 (BDF1) mice
Conditions: endpoint: mean tumor weight; dose: 25.0 mg/kg/injection; schedule: Q01DX011 (ip); vehicle: saline; higher = larger tumour
// reported T/C for each item listed

In the examples that follow, each entry is paired with its recorded T/C.
### Prompt Please give the documented T/C of `O=c1[nH]cc(F)c(=O)[nH]1`
### Response 34 % of control

### Prompt Please give the documented T/C of `Cc1ccccc1CNc1ncnc2[nH]ncc12`
### Response 29 % of control

### Prompt Please give the documented T/C of `Cc1ncc(CO)c(C)c1O`
### Response 45 % of control

New cases:
### Prompt Please give the documented T/C of COC1CC(O)C(COS(C)(=O)=O)O1 (stereo unspecified)
### Response 100 % of control

### Prompt Please give the documented T/C of OC(CBr)C(O)C(O)C(O)CBr (stereo unspecified)
### Response 48 % of control

### Prompt Please give the documented T/C of CS(=O)(=O)OCC1OC(O)CC1O (stereo unspecified)
### Response 113 % of control

### Prompt Please give the documented T/C of `Nc1nc(N)c2cnnn2n1`
### Response 83 % of control

### Prompt Please give the documented T/C of CCSc1ncnc2c1ncn2C1OC(CO)C(O)C1O (stereo unspecified)
### Response 14 % of control

====

// reported T/C for each item listed
Test system: BDF1 mice, Adenocarcinoma 755 s.c., tumor weight T/C
Assay: NCI In Vivo Anticancer Drug Screen. Data for tumor model Adenocarcinoma 755 (subcutaneous) in B6D2F1 (BDF1) mice
Settings: endpoint: mean tumor weight; dose: 0.5 mg/kg/injection; schedule: Q01DX011 (ip); vehicle: carboxymethylcellulose (CMC); higher = larger tumour

In the examples that follow, each entry is paired with its recorded T/C.
### Prompt Give T/C only, for `CCSc1ncc(Br)c(Sc2nc(N)nc3nc[nH]c23)n1` , using BDF1 mice, Adenocarcinoma 755 s.c., tumor weight T/C data.
### Response 69 % of control

### Prompt Give T/C only, for `NC(=O)c1ccc(NC(=O)CCC(=O)Nc2ccc(C(N)=O)cn2)nc1` , using BDF1 mice, Adenocarcinoma 755 s.c., tumor weight T/C data.
### Response 93 % of control

### Prompt Give T/C only, for NC(=O)c1cn(C2OC(CO)C(O)C2O)c2ncnc(N)c12 (stereo unspecified) , using BDF1 mice, Adenocarcinoma 755 s.c., tumor weight T/C data.
### Response 51 % of control

### Prompt Give T/C only, for `N#CCSc1nc(N)nc2nc[nH]c12` , using BDF1 mice, Adenocarcinoma 755 s.c., tumor weight T/C data.
### Response 82 % of control

### Prompt Give T/C only, for CCCOP(=S)(N1CC1C)N1CC1(C)C (stereo unspecified) , using BDF1 mice, Adenocarcinoma 755 s.c., tumor weight T/C data.
### Response 68 % of control

Could you now look at the following compound, please?
### Prompt Give T/C only, for `CO[C@@]12[C@H](COC(N)=O)C3=C(C(=O)C(C)=C(N)C3=O)N1C[C@@H]1N[C@@H]12` , using BDF1 mice, Adenocarcinoma 755 s.c., tumor weight T/C data.
### Response 17 % of control

====

Tested on: BDF1 mice, Adenocarcinoma 755 s.c., tumor weight T/C
Assay: NCI In Vivo Anticancer Drug Screen. Data for tumor model Adenocarcinoma 755 (subcutaneous) in B6D2F1 (BDF1) mice
Conditions: endpoint: mean tumor weight; dose: 15.0 mg/kg/injection; schedule: Q01DX011 (ip); vehicle: carboxymethylcellulose (CMC); higher = larger tumour
measured-parameter: T/C

In the examples that follow, each entry is paired with its recorded T/C.
### Prompt Please give the documented T/C of `O=C1C(=O)C(Cl)=C(Cl)C(Cl)=C1Cl`
### Response 90 % of control

### Prompt Please give the documented T/C of `CCCN(C)/N=N/c1nc[nH]c1C(N)=O`
### Response 47 % of control

### Prompt Please give the documented T/C of `OCCn1cnc2c(SCc3ccccc3Cl)ncnc21`
### Response 77 % of control

### Prompt Please give the documented T/C of `COc1ccc2c(c1)/C(=C/CCN(C)C)c1ccccc1S2`
### Response 67 % of control

### Prompt Please give the documented T/C of Nc1ncnc2c1ncn2C(C=O)OC(C=O)CO (stereo unspecified)
### Response 93 % of control

Could you now look at the following compound, please?
### Prompt Please give the documented T/C of `O=C1Cc2ccccc2C(=O)N1`
### Response 104 % of control

====

// reported T/C for each item listed
System: BDF1 mice, Adenocarcinoma 755 s.c., tumor weight T/C
Assay: NCI In Vivo Anticancer Drug Screen. Data for tumor model Adenocarcinoma 755 (subcutaneous) in B6D2F1 (BDF1) mice
Conditions: endpoint: mean tumor weight; dose: 100.0 mg/kg/injection; schedule: Q01DX011 (ip); vehicle: methylcellulose (MC); higher = larger tumour

### Prompt Please give the documented T/C of CC(C)CC(Nc1ncnc2nc[nH]c12)C(=O)O (stereo not drawn)
### Response 60 % of control

### Prompt Please give the documented T/C of `Cc1ccc(CNc2ncnc3[nH]ncc23)cc1C`
### Response 64 % of control

### Prompt Please give the documented T/C of `CN(Cc1ccccc1)c1ncnc2[nH]ncc12`
### Response 2 % of control

### Prompt Please give the documented T/C of `CCCCn1cnc2c(SCc3ccc(Br)cc3)nc(N)nc21`
### Response 49 % of control

New cases:
### Prompt Please give the documented T/C of `O=C1CN(/N=C\c2ccc([N+](=O)[O-])o2)C(=O)N1`
### Response 89 % of control

### Prompt Please give the documented T/C of `CCN(CC)CCNc1ccc(C)c2sc3ccccc3c(=O)c12`
### Response 1 % of control

### Prompt Please give the documented T/C of `O=C(NCCCl)N1CCN(C(=O)NCCCl)CC1`
### Response 67 % of control

### Prompt Please give the documented T/C of CCC(C)Cn1cnc2c(Sc3c([N+](=O)[O-])ncn3C)nc(N)nc21 (stereo not drawn)
### Response 1 % of control

### Prompt Please give the documented T/C of `c1cc(CSc2ncnc3nc[nH]c23)ccn1`
### Response 7 % of control

### Prompt Please give the documented T/C of O=C(C1C(c2ccccc2)N1Cc1ccccc1)C1C(c2ccccc2)N1Cc1ccccc1 (stereo not drawn)
### Response 66 % of control

### Prompt Please give the documented T/C of `CC(C)Cn1cnc2c(SCc3ccc(Cl)cc3Cl)nc(N)nc21`
### Response 69 % of control

### Prompt Please give the documented T/C of `O=C(CCBr)NCCNC(=O)CCBr`
### Response 3 % of control

### Prompt Please give the documented T/C of Nc1nc(SCc2ccccc2)c2ncn(C3OC(CO)C(O)C3O)c2n1 (stereo not drawn)
### Response 6 % of control

### Prompt Please give the documented T/C of `CSc1nc(Cl)c(Br)c(Sc2nc(N)nc3nc[nH]c23)n1`
### Response 7 % of control

### Prompt Please give the documented T/C of `COc1ccc(-n2cnc3c(N)nc(N)nc32)cc1`
### Response 50 % of control

### Prompt Please give the documented T/C of `CCCCn1cnc2c(SCCc3ccccc3)nc(N)nc21`
### Response 42 % of control

### Prompt Please give the documented T/C of `CCCCn1cnc2c(SCc3ccccc3F)nc(N)nc21`
### Response 5 % of control

### Prompt Please give the documented T/C of O=C(O)CC(Nc1ncnc2nc[nH]c12)C(=O)O (stereo not drawn)
### Response 45 % of control
